# assay-system: T1, His-tagged, full-length PCSK9 (human, UniProt Q8NBP7 31-692)
# T1 construct: The secreted protein is autocleaved into a prodomain and a catalytic/Cys-rich chain that starts at S153; also called His-PCSK9
# T1 sequence (Q8NBP7 other isoform, or with tags, fused parts or gaps limits assumed): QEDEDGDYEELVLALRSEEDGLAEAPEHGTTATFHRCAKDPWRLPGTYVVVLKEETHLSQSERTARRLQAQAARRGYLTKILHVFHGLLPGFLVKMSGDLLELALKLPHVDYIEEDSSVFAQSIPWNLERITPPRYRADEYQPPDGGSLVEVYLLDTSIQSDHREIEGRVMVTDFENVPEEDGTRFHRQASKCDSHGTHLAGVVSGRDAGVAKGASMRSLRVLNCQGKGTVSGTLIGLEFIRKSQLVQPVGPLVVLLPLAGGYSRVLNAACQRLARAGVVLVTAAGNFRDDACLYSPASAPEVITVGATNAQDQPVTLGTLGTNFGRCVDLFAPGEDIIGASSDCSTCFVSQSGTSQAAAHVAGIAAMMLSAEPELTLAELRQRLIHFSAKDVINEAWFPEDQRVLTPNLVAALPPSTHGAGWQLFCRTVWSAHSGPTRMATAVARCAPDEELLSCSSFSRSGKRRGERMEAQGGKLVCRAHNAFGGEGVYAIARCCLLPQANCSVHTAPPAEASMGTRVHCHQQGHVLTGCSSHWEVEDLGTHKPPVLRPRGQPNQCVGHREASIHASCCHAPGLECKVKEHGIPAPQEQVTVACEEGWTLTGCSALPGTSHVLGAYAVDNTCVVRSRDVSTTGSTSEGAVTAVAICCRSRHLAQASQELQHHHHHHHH
# experimental-protocol: TR-FRET competition; His-PCSK9, competitor EGF(A)-Fc
Square brackets hold non-standard residues; d marks the D form. Ends that are not written are not given here. hArg = N=C(N)NCCCC[C@H](N)C(=O)O
recorded-metric: pIC50
Would you please state pIC50, meaning minus log10 of the concentration in mol/L, as a bare number?

• WNLV[hArg]IGLLR (also: further groups not given here, Structure printed only as a drawing) [Compound 204] = 5.44

Continue with the binder presented below.
Would you kindly share the measured pIC50 for WNLV[hArg]IGLLR (also: further groups not given here, Structure printed only as a drawing) [Compound 225] ?
4.57
